- ASSAY_DETAILS: Test 2: Pharmacokinetic test in rats
- Type: in vivo, rat
- PROTOCOL_CONDITIONS: rat, blood, iv, 10 mg/kg, Rat-2, i.v. 10 mg/kg, 180 min; read-out: Blood concentration
EXPERIMENTAL_READOUT: concentration at 3 h (ng/mL)
Write the value in ng/mL as a bare number.

Data request, read-out concentration at 3 h, for CN(C(=O)[C@H](Cc1ccc(C(=N)NN)cc1)NS(=O)(=O)c1ccc2ccccc2c1)C1CCCC1 73

---

- ASSAY_DETAILS: Test 2: Pharmacokinetic test in rats
- Assay type: in vivo, rat
- PROTOCOL_CONDITIONS: rat, blood, iv, 10 mg/kg, rats, i.v. 10 mg/kg, 60 min; read-out: Blood concentration, Average(+error)
EXPERIMENTAL_READOUT: concentration at 1 h

Data request, read-out concentration at 1 h, for CN(C(=O)[C@H](Cc1ccc(C(=N)NN)cc1)NS(=O)(=O)c1ccc2ccccc2c1)C1CCCC1 267 ng/mL

---

- ASSAY_DETAILS: Test 2: Pharmacokinetic test in rats
- Type: in vivo, rat
- PROTOCOL_CONDITIONS: rat, blood, iv, 10 mg/kg, rats, i.v. 10 mg/kg, 120 min; read-out: Blood concentration, Average(+error)
EXPERIMENTAL_READOUT: concentration at 2 h
Please state the number and follow it with the unit.

Data request, read-out concentration at 2 h, for CN(C(=O)[C@H](Cc1ccc(C(=N)NN)cc1)NS(=O)(=O)c1ccc2ccccc2c1)C1CCCC1 97 ng/mL

---

- ASSAY_DETAILS: Test 2: Pharmacokinetic test in rats
- Assay type: in vivo, rat
- PROTOCOL_CONDITIONS: rat, blood, iv, 10 mg/kg, Rat-2, i.v. 10 mg/kg, 10 min; read-out: Blood concentration
EXPERIMENTAL_READOUT: concentration at 10 min (ng/mL)
Write the value in ng/mL as a bare number.

Data request, read-out concentration at 10 min, for CN(C(=O)[C@H](Cc1ccc(C(=N)NN)cc1)NS(=O)(=O)c1ccc2ccccc2c1)C1CCCC1 1830

---

- ASSAY_DETAILS: Test 2: Pharmacokinetic test in dogs
- Assay type: in vivo, dog
- PROTOCOL_CONDITIONS: dog, blood, iv, 10 mg/kg, dogs, i.v. 10 mg/kg, 360 min; read-out: Blood concentration, Average(+error)
EXPERIMENTAL_READOUT: concentration at 6 h (ng/mL)
Write the value in ng/mL as a bare number.

Data request, read-out concentration at 6 h, for CN(C(=O)[C@H](Cc1ccc(C(=N)NN)cc1)NS(=O)(=O)c1ccc2ccccc2c1)C1CCCC1 204

---

- ASSAY_DETAILS: Test 2: Pharmacokinetic test in rats
- Type: in vivo, rat
- PROTOCOL_CONDITIONS: rat, blood, po, 15 mg/kg, Rat-2, oral 15 mg/kg, 30 min; read-out: Blood concentration
EXPERIMENTAL_READOUT: concentration at 0.5 h (ng/mL)
Write the value in ng/mL as a bare number.

Data request, read-out concentration at 0.5 h, for CN(C(=O)[C@H](Cc1ccc(C(=N)NN)cc1)NS(=O)(=O)c1ccc2ccccc2c1)C1CCCC1 82

---

- ASSAY_DETAILS: Test 2: Pharmacokinetic test in dogs
- Format: in vivo, dog
- PROTOCOL_CONDITIONS: dog, blood, iv, 10 mg/kg, Dog-1, i.v. 10 mg/kg, 45 min; read-out: Blood concentration
EXPERIMENTAL_READOUT: concentration at 0.75 h

Data request, read-out concentration at 0.75 h, for CN(C(=O)[C@H](Cc1ccc(C(=N)NN)cc1)NS(=O)(=O)c1ccc2ccccc2c1)C1CCCC1 1940 ng/mL
